// provenance: patent US10214531B2

studyTarget: recombinant human AMCase (Homo sapiens)
procedureSummary: Human AMCase Activity Assay
recordedConditions: recombinant hAMCase, 4-methylumbelliferyl chitobioside substrate, citrate buffer pH 5.2, 37° C., 60 minutes; read-out: Activity (IC50 value key)
Reported IC50 is given for each of the following compounds.
propertyLabel: IC50

compound | studyTarget | result
COc1ccc(OC)c(CCN(C)C2CCN(c3nc(N)n[nH]3)CC2)c1 | recombinant human AMCase (Homo sapiens) | 10 to 100 µM
Nc1n[nH]c(N2CCN(C(=O)[C@@H](O)Cc3ccc(Cl)cc3)CC2)n1 | recombinant human AMCase (Homo sapiens) | 10 to 100 µM
Nc1n[nH]c(N2CCC(CNCc3ccc(Br)cc3)CC2)n1 | recombinant human AMCase (Homo sapiens) | > 100 µM
CCC(CN1CCN(c2nc(N)n[nH]2)CC1)Oc1ccc(Cl)cc1 (centres unmarked) [Example 216] | recombinant human AMCase (Homo sapiens) | 1 to 10 µM
CC(CN1CCN(c2nc(N)n[nH]2)CC1)Oc1ccc(Br)cc1 (centres unmarked) | recombinant human AMCase (Homo sapiens) | 10 to 100 µM

====

studyTarget: recombinant human AMCase (Homo sapiens, UniProt Q9BZP6)
Sequence (Q9BZP6 22-476): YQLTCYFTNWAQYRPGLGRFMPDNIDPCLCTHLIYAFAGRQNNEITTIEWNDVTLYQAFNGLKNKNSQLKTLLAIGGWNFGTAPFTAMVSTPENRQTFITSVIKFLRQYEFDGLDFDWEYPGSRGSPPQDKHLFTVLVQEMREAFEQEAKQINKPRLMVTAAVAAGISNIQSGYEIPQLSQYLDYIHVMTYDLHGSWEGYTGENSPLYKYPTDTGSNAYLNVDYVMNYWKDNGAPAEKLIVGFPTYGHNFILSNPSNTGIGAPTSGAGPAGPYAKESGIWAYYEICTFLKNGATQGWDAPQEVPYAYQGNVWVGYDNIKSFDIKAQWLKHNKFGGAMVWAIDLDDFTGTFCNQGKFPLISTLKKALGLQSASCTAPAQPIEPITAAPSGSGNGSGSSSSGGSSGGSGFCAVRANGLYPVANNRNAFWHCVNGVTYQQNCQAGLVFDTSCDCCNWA
procedureSummary: Human AMCase Activity Assay
recordedConditions: recombinant hAMCase, 4-methylumbelliferyl chitobioside substrate, citrate buffer pH 5.2, 37° C., 60 minutes; read-out: Activity (IC50 value key)
Procedure: Human AMCase Activity Assay The assay was run in the 96-well plate format, each reaction in the total volume of 100 μl. 4-Methylumbelliferyl B-D-N,N′ diacetylchitobioside hydrate was used as a substrate for the enzyme. Upon hydrolysis by AMCase, the substrate releases 4-methylumbelliferyl (4MU), when ionized in basic pH, emits fluorescence of 460 nm. Briefly, 40 μl of a substrate was added to each well, followed by 10 μl of compound dilution and 50 μl of hAMCase recombinant enzyme solution. […]
pIC50: −log10 of the molar value. Structures can show the parent of a compound that is named as a salt.
Measured pIC50 of individual entries
propertyLabel: pIC50

compound | result
Nc1n[nH]c(N2CC3CN(CCOc4ccc(Br)cc4)CC3C2)n1 (stereo not drawn) | < 4.00
CC(Cc1ccc(Cl)cc1)NC1CCN(c2nc(N)n[nH]2)CC1 (stereo not drawn) [Example 151, dihydrochloride] | 5.00 to 6.00
Nc1n[nH]c(N2CCC(CNC(=O)c3cc(Br)cc(Br)c3)CC2)n1 | < 4.00
Nc1n[nH]c(N2CCC(NC(=O)Nc3cc(Cl)c(Cl)cc3Cl)CC2)n1 | < 4.00
C[C@H](Cc1ccc(Cl)cc1)N(C)C1CCN(c2nc(N)n[nH]2)CC1 [Example 139, dihydrochloride] | 5.00 to 6.00
C[C@@H](c1ccccc1)N(CCc1ccc(Cl)cc1)C1CCN(c2nc(N)n[nH]2)CC1 | 6.00 to 7.00
CC(C)(Oc1ccc(Cl)cc1)C(=O)N1CCN(c2nc(N)n[nH]2)CC1 | < 4.00
CCC(Oc1ccc(Cl)cc1)C(=O)N1CCN(c2nc(N)n[nH]2)CC1 (stereo not drawn) | < 4.00
CC1CN(c2nc(N)n[nH]2)CCC1NS(=O)(=O)Cc1ccc(Br)cc1 (stereo not drawn) | 5.00 to 6.00
C[C@H](Oc1ccc(Cl)cc1)C(=O)N1CCN(c2nc(N)n[nH]2)CC1 | < 4.00
C[C@@H](Oc1ccc(Br)cc1)C(=O)N1CCN(c2nc(N)n[nH]2)CC1 | < 4.00
Nc1n[nH]c(N2CCC(N(CCc3ccc(Cl)cc3)Cc3cnc4ccccc4n3)CC2)n1 [Example 116, dihydrochloride] | 6.00 to 7.00
Cc1cccc(Cl)c1OCCN1CCN(c2nc(N)n[nH]2)CC1 | 4.00 to 5.00
Nc1n[nH]c(N2CCC(NS(=O)(=O)Cc3cc(Cl)cc(Cl)c3)CC2)n1 | 5.00 to 6.00
Nc1n[nH]c(N2CCC(NC(=O)C(O)c3ccc(Cl)cc3)CC2)n1 (stereo not drawn) | < 4.00
Nc1n[nH]c(N2CCN(CCOc3ccccc3C(F)(F)F)CC2)n1 | < 4.00
Nc1n[nH]c(N2CCN(C(=O)COc3ccc(Cl)c([N+](=O)[O-])c3)CC2)n1 | < 4.00
COc1ccc(CNC(=O)C2CCN(c3nc(N)n[nH]3)CC2)c(OC)c1 | < 4.00
Nc1n[nH]c(N2CCC(N(CCc3ccc(Cl)cc3)Cc3ccc(F)cc3)CC2)n1 | > 7.00
Nc1n[nH]c(N2CCC(N(CCc3ccc(Br)cc3)Cc3cccc4cnccc34)CC2)n1 | > 7.00
CCCC1CN(c2nc(N)n[nH]2)CCC1NCCc1ccc(Cl)cc1 (single isomer, unassigned) [Example 234] | 6.00 to 7.00
CN(CCc1cccnc1)C1CCN(c2nc(N)n[nH]2)CC1 [Example 131, dihydrochloride] | 4.00 to 5.00
CCC(Cc1ccc(Cl)cc1)N(CC)C1CCN(c2nc(N)n[nH]2)CC1 (stereo not drawn) [Example 232, dihydrochloride] | 6.00 to 7.00
Nc1n[nH]c(N2CCN(C(=O)CC(N)c3ccccc3F)CC2)n1 (stereo not drawn) [Example 214, dihydrochloride] | < 4.00
Nc1nc(N2CCC(N(CCc3ccc(Cl)cc3)Cc3ccc(Cl)cc3)CC2)n[nH]1 | > 7.00
CN(CCc1ccc(Cl)cc1)C1(CCO)CCN(c2nc(N)n[nH]2)CC1 | 6.00 to 7.00
Nc1n[nH]c(N2CCC(N(CCc3ccc(Br)cc3)Cc3cccc4ccccc34)CC2)n1 | > 7.00
CC1CN(c2nc(N)n[nH]2)CCC1NCCc1ccc(Cl)cc1 (mixture of isomers) | 6.00 to 7.00
Nc1n[nH]c(N2CCC(N(CCc3ccc(Cl)cc3)Cc3ccc(-c4ccccc4)cc3)CC2)n1 | > 7.00
CN(C1CCN(c2nc(N)n[nH]2)CC1)[C@H](CO)Cc1ccc(Cl)cc1 | 6.00 to 7.00
Nc1n[nH]c(N2CCC(N(CCc3ccc(Cl)cc3)Cc3ccccc3Br)CC2)n1 | > 7.00
Nc1n[nH]c(N2CCC(N(CCc3ccc(Cl)cc3)Cc3cccc(CO)c3)CC2)n1 | > 7.00
Nc1n[nH]c(N2CCC(C(=O)NCc3ccc(Cl)c(Cl)c3)CC2)n1 | < 4.00
